targetEntity: cynomolgus monkey DLL4 extracellular domain (cynomolgus monkey)
experimentalProtocol: Biacore SPR
Kd values for the binders below.

binder	Kd
1A11 rat monoclonal antibody (antibody, V domains shown) VH: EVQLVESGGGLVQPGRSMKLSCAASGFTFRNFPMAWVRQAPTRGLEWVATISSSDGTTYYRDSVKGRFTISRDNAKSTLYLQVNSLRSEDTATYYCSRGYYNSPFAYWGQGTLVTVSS VL: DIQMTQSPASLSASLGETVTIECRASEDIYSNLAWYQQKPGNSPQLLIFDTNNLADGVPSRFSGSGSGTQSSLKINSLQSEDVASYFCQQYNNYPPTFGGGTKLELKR	8.1 nM
14A11 rat monoclonal antibody (antibody, V domains shown) VH: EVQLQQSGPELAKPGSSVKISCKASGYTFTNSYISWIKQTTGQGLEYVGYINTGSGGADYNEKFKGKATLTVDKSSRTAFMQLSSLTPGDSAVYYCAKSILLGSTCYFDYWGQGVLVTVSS VL: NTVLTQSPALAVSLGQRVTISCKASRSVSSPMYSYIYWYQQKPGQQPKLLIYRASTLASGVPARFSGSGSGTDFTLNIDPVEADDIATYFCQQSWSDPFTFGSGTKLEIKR	11.6 nM
15D6 rat monoclonal antibody (antibody, V domains shown) VH: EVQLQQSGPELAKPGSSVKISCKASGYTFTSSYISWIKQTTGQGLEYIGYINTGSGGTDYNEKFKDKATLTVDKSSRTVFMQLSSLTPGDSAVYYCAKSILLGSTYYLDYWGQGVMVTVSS VL: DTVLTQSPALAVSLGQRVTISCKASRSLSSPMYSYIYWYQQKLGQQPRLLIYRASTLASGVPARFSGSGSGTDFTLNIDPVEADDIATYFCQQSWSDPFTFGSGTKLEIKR	14.9 nM
